Target: IBV endonuclease (full-length IBV RdRp complex PA/PB1/PB2) (Influenza B virus)
Experiment: biochemical
Assay readout: IC50 (nM)
Number in nM, nothing else.

O=C(O)c1cn2c(c(O)c1=O)C(=O)N1CCOC[C@H]1N2[C@@H]1c2ccccc2SCc2c1ccc(F)c2F :: 410

q: Any idea what IC50 was measured for CC(C)N1CN([C@H]2c3ccccc3SCc3c2ccc(F)c3F)n2ccc(=O)c(O)c2C1=O ?
a: 710

----------
Biological target: SNV endonuclease (full-length L protein) (Sin Nombre orthohantavirus, UniProt A0A059WLS4)
Test: biochemical
Design: species or system Sin Nombre virus
Details: IC50, SNV endonuclease activity
Assay readout: pIC50
Please treat pIC50 as minus the base-10 logarithm of the molar concentration.

q: Fill in the blank: the reported pIC50 of O=C1c2c(O)c(=O)ccn2N([C@@H]2c3ccccc3SCc3c2ccc(F)c3F)[C@@H]2COCCN12 [BXA, Baloxavir acid, reference compound] is ____.
a: 3.21

Origin of the recorded values: paper PMC11946187
